# TEST_DESCRIPTION: CD (circular dichroism) spectroscopy of α-helix structure
# Type: physicochemical
# CONDITION_INFO: Table 14; coil-rod-coil peptide complexes

SUBSTANCE	[θ]222/[θ]208
(PEG10)2AUAUAUAUAUAUAUAUAUAUA(PEG10)2 [Example 127]	1.2
(PEG8)2AUAUAUAUAUAUAUA(PEG8)2 [Example 124]	0.78
(PEG8)2AUAUAUAUA(PEG8)2 [Example 123]	0.6
(PEG8)AUAUAUAUAUAUAUAUAUAUA(PEG8)2 [Example 121]	1.04
(PEG8)AUAUAUAUAUAUAUA(PEG8)2 [Example 120]	0.83
(PEG8)2AUAUAUAUAUAUAUAUAUAUA(PEG8)2 [Example 125]	1.21
(PEG8)2AUAUAUAUAUAUAUAUAUAUA(PEG8) [Example 122]	1.06
GSGAUAUAUAUAUAUAUAUAUAUAGSG [Example 116]	1.15
(PEG8)AUAUAUAUA(PEG8)2 [Example 119]	0.61
GSGSGAUAUAUAUAUAUAUAUAUAUAGSGSG [Example 117]	1.07
(PEG8)3AUAUAUAUAUAUAUAUAUAUA(PEG8)3 [Example 126]	1.18
(PEG10)3AUAUAUAUAUAUAUAUAUAUA(PEG10)3 [Example 128]	1.15
GSGSGSGSGAUAUAUAUAUAUAUAUAUAUAGSGSGSGSG [Example 118]	1.02

The origin of these recorded values is patent US20240424134A1.
